Data origin: paper PMC2756588

target: Rvs167, P39743; assay: SPOT array; details: median of control spots 2707
Sequence (P39743 419-482): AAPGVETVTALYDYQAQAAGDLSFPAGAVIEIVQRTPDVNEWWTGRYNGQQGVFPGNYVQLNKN
observable: SPOT intensity

Guide cases for SPOT intensity, answers given:
# binder, observed_value
data = [
    ("HPRFVSPRIPSRIVK", 4),
    ("NAGIRPKFILALNDE", 4),
]

P = NLKKRPPTAPQRKIS
Q = VKPRQLFPIPLNKVD
Asked: Could you check which of P and Q has a smaller value for SPOT intensity? Selection: enter the item's label.
Given back: Q
(Q: 0, P: 18)
